Target: Lysine-specific demethylase 4E (Homo sapiens); note: nearly all actives have a fitted effect of over 50% in size
Test: qHTS Assay for Inhibitors of Human Jumonji Domain Containing 2E (JMJD2E)
Details: JMJD2E catalytic domain, FDH-coupled NADH fluorescence (FDH is formaldehyde dehydrogenase); series mostly up to 57.1 µM
Excerpt: Assay Provider: Structural Genomics Consortium [SGC] Screening Center PI: Austin, C.P. Screening Center: NIH Chemical Genomics Center [NCGC] The fine interplay among methylation states of several lysine residues on the tails of histone proteins is a major determinant of the transcriptional state of the associated DNA coding regions and is commonly referred to as the histone code. […]
Among all 230,000 compounds or so, about 3,600 (1.6%) were called active. About 15% were inconclusive and are not listed. Calls come from the whole dose curve; as a rule, active = well fitted inhibition curve with a large enough effect (not every such curve was filed as active); inconclusive = small, poorly fitted or top-dose-only effect, or another doubt; inactive = no such curve, though single readings can be large or run the other way. What follows is part of a selection rich in actives, with near analogues and random picks from the rest.
In this exercise, the only acceptable responses are true (active), false (inactive)

| compound | assigned_category |
| --- | --- |
| COc1ccc(OC)c(-n2c(-c3ccn[nH]3)n[nH]c2=S)c1 | false |
| Oc1ccc(/C=N/NC2=NCCCCC2)c(O)c1 | true |
| O=C(Nc1ccc(N2CCN(C(=O)c3ccccc3)CC2)c(Cl)c1)c1ncn[nH]1 | false |

## Task Call for entry `CC(=O)c1ccc2c(c1)OCCOCCOc1ccc(C(C)=O)cc1OCCOCCO2` :
## Result false

## Task Query: recorded result category for `Oc1ccc(/C=N/Nc2nc(-c3ccccc3F)nc3ccccc23)c(O)c1` in this test
## Result false

## Task Would you mind telling me which call this test gave `Oc1ccc(N=Nc2nccs2)c(O)c1` ?
## Result true

Where these numbers come from: PubChem BioAssay AID2147
